Every entry's value here was drawn from paper PMC6627487.

Target: UniProt P53341
Assay: α-Glucosidase inhibition assay (PNPG substrate, OD 405 nm)
Format: biochemical
Details: α-glucosidase; compound at 100 μM; read-out: %Inhibition (100 μM)
assayReadout: inhibition at 100 µM (%)

Consider the reported inhibition at 100 µM for these compounds:
[
  {
    "compound": "COC(=O)[C@]1(Cc2ccc3c(c2)C[C@H](O)C(C)(C)O3)OC(=O)C(O)=C1c1ccc(O)cc1",
    "assayReadout": "inhibition at 100 µM",
    "measurementUnits": "%",
    "assayResult": 21.6
  },
  {
    "compound": "CCOC(=O)[C@]1(Cc2ccc3c(c2)C[C@H](C(C)(C)O)O3)OC(=O)C(O)=C1c1ccc(O)cc1 [Compound 2, Aspernolide O]",
    "assayReadout": "inhibition at 100 µM",
    "measurementUnits": "%",
    "assayResult": 23.2
  },
  {
    "compound": "CCOC(=O)[C@]1(Cc2ccc3c(c2)CC(O)C(C)(C)O3)OC(=O)C(O)=C1c1ccc(O)cc1 (some centres unmarked) [Compound 3, Aspernolide P]",
    "assayReadout": "inhibition at 100 µM",
    "measurementUnits": "%",
    "assayResult": 26.4
  }
]

[I] COC(=O)[C@]1(Cc2ccc3c(c2)C[C@H](C(C)(C)O)O3)OC(=O)C(O)=C1c1ccccc1 [Compound 1, Aspernolide N]
[II] COC(=O)[C@]1(Cc2ccc3c(c2)C=CC(C)(C)O3)OC(=O)C(O)=C1c1ccc(O)cc1 [Compound 9, aspernolide E]
Between I and II , whose recorded inhibition at 100 µM is greater? Kindly state the label of the option you pick. II
(II: 90.4%, I: 18.6%)

----------
# inhibition at 100 µM values compiled below
Target: α-glucosidase from Saccharomyes cerevisiae (Saccharomyces cerevisiae, UniProt P53341)
Sequence (P53341 whole entry): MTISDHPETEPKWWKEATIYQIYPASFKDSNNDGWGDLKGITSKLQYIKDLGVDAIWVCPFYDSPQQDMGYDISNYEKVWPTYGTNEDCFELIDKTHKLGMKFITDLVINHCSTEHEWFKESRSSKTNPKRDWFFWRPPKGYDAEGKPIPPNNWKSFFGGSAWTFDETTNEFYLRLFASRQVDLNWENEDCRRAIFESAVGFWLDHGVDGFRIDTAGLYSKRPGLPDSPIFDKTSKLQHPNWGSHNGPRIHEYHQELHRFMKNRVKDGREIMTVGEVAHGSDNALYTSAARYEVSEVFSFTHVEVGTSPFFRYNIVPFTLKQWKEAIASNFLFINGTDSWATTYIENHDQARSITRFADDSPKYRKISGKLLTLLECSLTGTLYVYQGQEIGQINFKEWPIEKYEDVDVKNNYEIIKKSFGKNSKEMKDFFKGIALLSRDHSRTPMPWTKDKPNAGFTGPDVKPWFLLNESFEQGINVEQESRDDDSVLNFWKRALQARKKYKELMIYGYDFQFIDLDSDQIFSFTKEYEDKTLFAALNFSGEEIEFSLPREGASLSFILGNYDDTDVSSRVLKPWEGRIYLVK
Assay: α-Glucosidase inhibition assay (PNPG substrate, OD 405 nm)
Type: biochemical
Details: read-out: %Inhibition (100 μM)
Protocol: The α-glucosidase inhibitory effect was assessed using a previously described method with slight modification. 0.2 U of α-glucosidase from Saccharomyes cerevisiae purchased from Sigma-Aldrich (St. Louis, MO, USA) was diluted to 0.1 M phosphate buffer consisting of Na2HPO4 and NaH2PO4 (pH 6.8). […] The OD was measured at an absorbance wavelength of 405 nm using a Microplate Reader (Tecan, Switzerland).
API: value field is a number in %; no unit string.

[
  {
    "molecule": "CCOC(=O)[C@]1(Cc2ccc(O)c(CC=C(C)C)c2)OC(=O)C(O)=C1c1ccc(O)cc1",
    "measurementUnits": "%",
    "inhibition at 100 µM": 100
  }
]

Which inhibition at 100 µM is reported with α-glucosidase from Saccharomyes cerevisiae (Saccharomyces cerevisiae, UniProt P53341) for this entry: COC(=O)[C@]1(Cc2ccc3c(c2)CCC(C)(C)O3)OC(=O)C(O)=C1c1ccc(O)cc1 [Compound 8, aspernolide A] ? 89.2

Same question for COC(=O)[C@]1(Cc2ccc3c(c2)C[C@H](C(C)(C)O)O3)OC(=O)C(O)=C1c1ccc(O)cc1 please. 37.3

Same question, COC(=O)[C@]1(Cc2ccc(O)c(CC=C(C)C)c2)OC(=O)C(O)=C1c1ccc(O)cc1 this time 100
